# target-or-system: recombinant human KLK5 (human) (UniProt Q9Y337)
# Sequence (Q9Y337 67-293): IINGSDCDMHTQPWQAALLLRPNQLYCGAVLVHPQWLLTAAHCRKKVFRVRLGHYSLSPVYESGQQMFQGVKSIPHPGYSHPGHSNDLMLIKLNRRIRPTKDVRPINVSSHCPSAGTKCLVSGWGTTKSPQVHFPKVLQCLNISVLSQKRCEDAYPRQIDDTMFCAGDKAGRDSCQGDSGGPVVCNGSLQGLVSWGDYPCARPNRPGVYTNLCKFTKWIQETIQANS
# method-notes: pro-KLK1 LC/MS assay, 0.5 nM KLK5, 300 nM pro-KLK1; box column 3 of 3; no unit printed, nM per text

>  <binder>
8F5 (antibody, V domains shown) VH: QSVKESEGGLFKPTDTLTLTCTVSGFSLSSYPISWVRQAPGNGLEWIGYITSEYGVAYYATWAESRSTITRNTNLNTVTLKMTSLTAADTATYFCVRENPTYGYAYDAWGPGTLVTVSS VL: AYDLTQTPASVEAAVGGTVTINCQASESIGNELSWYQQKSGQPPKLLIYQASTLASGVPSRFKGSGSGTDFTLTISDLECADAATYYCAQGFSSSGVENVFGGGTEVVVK

>  <IC50, nM>
0.241

$$$$
>  <binder>
9B6 (antibody, V domains shown) VH: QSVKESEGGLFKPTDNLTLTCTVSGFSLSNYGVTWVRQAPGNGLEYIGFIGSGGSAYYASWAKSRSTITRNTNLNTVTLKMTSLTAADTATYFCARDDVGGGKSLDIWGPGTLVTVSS VL: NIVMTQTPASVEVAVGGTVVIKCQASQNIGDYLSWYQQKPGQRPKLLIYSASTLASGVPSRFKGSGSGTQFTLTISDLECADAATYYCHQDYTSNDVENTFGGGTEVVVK

>  <IC50, nM>
0.0879

$$$$
